Origin of values: patent US20170290876A1

- targetDesc: T1, human VEGF (human, UniProt P15692 207-395, biotinylated (site not stated))
- T1 construct: Biotinylated human VEGF generated internally; also called hVEGF; hVEGF-biotin
- T1 sequence: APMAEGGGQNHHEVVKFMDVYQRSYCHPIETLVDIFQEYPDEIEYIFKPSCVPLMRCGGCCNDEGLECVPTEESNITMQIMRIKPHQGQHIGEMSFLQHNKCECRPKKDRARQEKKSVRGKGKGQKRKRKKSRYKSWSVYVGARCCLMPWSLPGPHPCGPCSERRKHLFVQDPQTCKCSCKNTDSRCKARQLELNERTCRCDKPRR
- testProtocol: Biacore SPR, hVEGF
quantityKind: pKd
Scale for pKd: -log10 of concentration given in mol/L; no unit attached.

Examples with answers:
# binder, pKd
rows = [
    ("NVS4 heavy chain variant H101K (Fab, V domains shown, CDR variant of NVS4) VH: EVQLVESGGGLVQPGGSLRLSCTASGFSLTDYYYMTWVRQAPGKGLEWVGFIDPDDDPYYATWAKGRFTISRDNSKNTLYLQMNSLRAEDTAVYYCAGGDKNSGWGLDIWGQGTLVTVSS VL: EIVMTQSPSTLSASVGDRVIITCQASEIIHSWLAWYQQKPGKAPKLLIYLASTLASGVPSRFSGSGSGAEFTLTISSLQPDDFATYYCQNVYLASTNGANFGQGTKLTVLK", 9.23),
    ("NVS4 heavy chain variant D55Q + D56N (Fab, V domains shown, CDR variant of NVS4) VH: EVQLVESGGGLVQPGGSLRLSCTASGFSLTDYYYMTWVRQAPGKGLEWVGFIDPQNDPYYATWAKGRFTISRDNSKNTLYLQMNSLRAEDTAVYYCAGGDHNSGWGLDIWGQGTLVTVSS VL: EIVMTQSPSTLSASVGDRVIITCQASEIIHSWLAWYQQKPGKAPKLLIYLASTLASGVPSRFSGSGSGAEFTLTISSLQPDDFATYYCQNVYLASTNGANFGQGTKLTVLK", 10.04),
]

Determine from records and report pKd for HC7T (Fab, V domains shown, Tagged heavy chain CDR variant HC7 with NVS4 light chain) VH: EVQLVESGGGLVQPGGSLRLSCTASGFSLTKYYYMTWVRQAPGKGLEWVGFIKPKDKPYKATWAKGRFTISRDNSKNTLYLQMNSLRAEDTAVYYCAGGDHNSGWGLDIWGQGTLVTVSS VL: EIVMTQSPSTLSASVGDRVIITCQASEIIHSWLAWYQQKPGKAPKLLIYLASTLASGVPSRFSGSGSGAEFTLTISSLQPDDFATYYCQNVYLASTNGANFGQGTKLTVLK
9.26
